Tested on: pY641-STAT6 in Peripheral Blood Mononuclear Cells (PBMC)
Assay: MSD-pSTAT-PBMC Assay (pSTAT6, IL-4 stimulated)
Format: cell-based, Human
Conditions: Homo sapiens, compound 3 hrs, then 1 ng/mL IL-4 for 10 min
pIC50: −log10 of the molar value.
outcomeMeasure: pIC50

Given the entry Cc1ccc2onc(C(=O)N3CC[C@H]4CC[C@@H](C(=O)N5C[C@@H](C#N)[C@H](c6ccccc6)C5)N4C(=O)[C@@H](NC(=O)c4ccc5ccc(C(F)(F)P(=O)(OCCSC(=O)CC(C)C)OCCSC(=O)CC(C)C)cc5c4)C3)c2c1 (single isomer, unassigned) [Compound 433] , report its measured pIC50. ≥ 7.00

Proceed to CCCOC(=O)[C@H](C)NP(=O)(Oc1ccccc1)C(F)c1ccc2ccc(C(=O)N[C@H]3CN(C(=O)c4noc5cc(OC)ccc45)CC[C@H]4CC[C@@H](C(=O)N5CCOCC5)N4C3=O)cc2c1 (some centres unmarked) [Compound 424] 5.52 to 6.00

Proceed to CCCOC(=O)[C@H](C)NP(=O)(Oc1ccccc1)C(F)c1ccc2ccc(C(=O)N[C@H]3CN(C(=O)c4cc(Cl)c5nc(C)ccc5c4)CC[C@H]4CC[C@@H](C(=O)N5CCOCC5)N4C3=O)cc2c1 (some centres unmarked) [Compound 407] 5.52 to 6.00

Kindly give each listed record's pIC50.
1. CCCOC(=O)[C@H](C)NP(=O)(Oc1ccccc1)C(F)c1ccc2ccc(C(=O)N[C@H]3CN(C(=O)c4ncn5ccccc45)CC[C@H]4CC[C@@H](C(=O)N5CCOCC5)N4C3=O)cc2c1 (some centres unmarked) [Compound 423]
2. Cc1ccc2[nH]nc(C(=O)N3CC[C@H]4CC[C@@H](C(=O)N5C[C@H](c6cc[nH]c(=O)c6)CC56CC6)N4C(=O)[C@@H](NC(=O)c4ccc5ccc(C(F)(F)P(=O)(OCCSC(=O)CC(C)C)OCCSC(=O)CC(C)C)cc5c4)C3)c2c1 [Compound 431]
3. COC(=O)N1CC[C@H]2CC[C@@H](C(=O)N3C[C@H](c4ccccc4)[C@@H](C#N)C3)N2C(=O)[C@@H](NC(=O)c2cc3cc(C(F)(F)P(=O)(OCOC(=O)C(C)(C)C)OCOC(=O)C(C)(C)C)ccc3s2)C1 (relative stereo) [Compound 349]

["< 5.52", "≥ 7.00", "≥ 7.00"]

###

Molecular target: Recombinant STAT6 protein (STAT6(W123-T658)) (Homo sapiens)
Construct: Recombinant STAT6 protein (STAT6(W123-T658))
Sequence (P42226 123-658): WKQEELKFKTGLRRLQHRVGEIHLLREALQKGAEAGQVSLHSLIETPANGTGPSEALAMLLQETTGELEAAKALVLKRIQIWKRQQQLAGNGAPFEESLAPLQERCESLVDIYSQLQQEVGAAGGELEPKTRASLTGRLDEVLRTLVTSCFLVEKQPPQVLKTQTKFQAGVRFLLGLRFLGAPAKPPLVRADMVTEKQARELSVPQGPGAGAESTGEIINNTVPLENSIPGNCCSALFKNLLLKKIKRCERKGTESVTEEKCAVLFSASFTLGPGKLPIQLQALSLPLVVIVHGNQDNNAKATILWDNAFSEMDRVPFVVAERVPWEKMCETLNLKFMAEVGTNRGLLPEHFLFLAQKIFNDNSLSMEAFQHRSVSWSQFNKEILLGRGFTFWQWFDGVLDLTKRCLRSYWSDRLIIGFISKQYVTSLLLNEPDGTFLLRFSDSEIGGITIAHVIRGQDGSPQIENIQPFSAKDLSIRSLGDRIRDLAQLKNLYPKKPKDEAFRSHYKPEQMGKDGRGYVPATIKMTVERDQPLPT
Experiment: STAT6 Fluorescence Polarization (FP) Assay
Settings: STAT6(W123-T658) 250 nM, probe 5-FAM-ApYKPFQDLI-NH2 2 nM, 45-minute incubation
Protocol: STAT6 Fluorescence Polarization (FP) Assay An FP assay was developed to determine IC50 values for test substances. […] Reaction components were mixed, and FP was measured after 45-minute incubation at room temperature using a Tecan Spark multimode plate reader. FP signal (mP) was plotted against the log concentration of the test substances and IC50 values were calculated by nonlinear regression analysis using GraphPad Prism software. […]
outcomeMeasure: IC50

Write down the reported IC50 of "CCN1CC[C@H]2CC[C@@H](C(=O)N3CC(C(=O)N4CCOCC4)C3)N2C(=O)[C@@H](NC(=O)c2cc3cc(C(F)(F)P(=O)(O)O)ccc3s2)C1" , test system: Recombinant STAT6 protein (STAT6(W123-T658)) (Homo sapiens). 3 to 30 µM

Proceed to CC(=O)N1CC[C@H]2CC[C@@H](C(=O)N3C[C@H](c4ccccc4)[C@@H](C#N)C3)N2C(=O)[C@@H](NC(=O)c2cc3cc(C(F)(F)P(=O)(O)O)ccc3[nH]2)C1 (single isomer, unassigned) ≤ 0.3 µM

Kindly give each listed record's IC50.
1. CO[C@H]1CN(C(C)=O)C[C@@H]1NC(=O)[C@@H]1CC[C@@H]2CCN(C(C)=O)C[C@H](NC(=O)c3cc4cc(C(F)(F)P(=O)(O)O)ccc4s3)C(=O)N21
2. C[C@H](Cc1ccccc1)C(=O)N1CC[C@H]2CC[C@@H](C(=O)N3CCCC3)N2C(=O)[C@@H](NC(=O)c2cc3cc(C(F)(F)P(=O)(O)O)ccc3s2)C1
3. O=C(N[C@H]1CN(C(=O)c2noc3c2COCC3)CC[C@H]2CC[C@@H](C(=O)N3CCOCC3)N2C1=O)c1ccc2ccc(C(F)P(=O)(O)O)cc2c1 (some centres unmarked)

["0.3 to 3 µM", "0.3 to 3 µM", "0.3 to 3 µM"]
